B1: HDV Ribozyme (parent)
chain: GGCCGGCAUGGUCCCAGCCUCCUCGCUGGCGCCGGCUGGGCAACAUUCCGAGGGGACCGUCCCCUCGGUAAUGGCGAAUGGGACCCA

# Variants of: B1
# assay notes: self-cleavage, relative activity (ratio to wild type); higher = more cleavage; co-transcriptional
Assign label 1 to entries whose self-cleavage meets or exceeds 0.4; assign label 0 to the rest.

1) GGCCGGCAUGGUCCCAGCCGCCUCGCUGGCGCCGGCUGGGCAACAUUCCGAGGGGACCGUCCCCUCGGUAAUGGCGAAUGGGACCGA [U20G C86G] = label 0
2) GGCCUGCAUGGUCCCAGCCUCCUCGCUGGCUCCGGCUGGGCAACAUUCCGAGGGGACCGUCCCCUCGGUAAUGGCGAAUGGGACCCA [G5U G31U] = label 0
3) GGCCGGCAUGGUCCCAGCCUCCUCGCUGGCGCCGCCUGGGCAACAUUCCGAGUGGACCGUCCCCUCGGUAAUGGCGAAUGGGACCCA [G35C G53U] = label 0
4) GGCCGGCAUGGUCCCAGCCUGCUCGCUGGCGCCGGCUGGGCAACAUUCCUAGGGGACCGUCCCCUCGGUAAUGGCGAAUGGGACCCA [C21G G50U] = label 0
5) CGCCGGCAUGGUCCCCGCCUCCUCGCUGGCGCCGGCUGGGCAACAUUCCGAGGGGACCGUCCCCUCGGUAAUGGCGAAUGGGACCCA [G1C A16C] = label 0
6) CGCCGGCAUGGUCCCAGCCUCCUCGCUGGCGCCGGCUGGGCAACAUUCCGAGGGGACCGUCCCCUCGGGAAUGGCGAAUGGGACCCA [G1C U69G] = label 0
7) GGCCGGCAUGGUCCCAGCCUCCUCGCUGGGGCAGGCUGGGCAACAUUCCGAGGGGACCGUCCCCUCGGUAAUGGCGAAUGGGACCCA [C30G C33A] = label 0
8) GGCCGGCAUGGUCCCAGCCUCCUCGCUGGCGCCGGAUGGGCAACAUUCCGAGGGGACCGUCCCGUCGGUAAUGGCGAAUGGGACCCA [C36A C64G] = label 0
9) GGCUGGCAUGGUCCCAGCCCCCUCGCUGGCGCCGGCUGGGCAACAUUCCGAGGGGACCGUCCCCUCGGUAAUGGCGAAUGGGACCCA [C4U U20C] = label 0
10) GGCCGGCAUGGUCCCAGCCUCCUCACUGGCGCCGGCUGGGCACCAUUCCGAGGGGACCGUCCCCUCGGUAAUGGCGAAUGGGACCCA [G25A A43C] = label 0
11) GGCAGGCAUGGUCCCAGCCUCCUCGCUGGCUCCGGCUGGGCAACAUUCCGAGGGGACCGUCCCCUCGGUAAUGGCGAAUGGGACCCA [C4A G31U] = label 0
12) GGCCGGCAUGGUCCCAGCCUCCUCGCUGGCACCGGCCGGGCAACAUUCCGAGGGGACCGUCCCCUCGGUAAUGGCGAAUGGGACCCA [G31A U37C] = label 0
13) GGCCGGCAUGGUCCCAGCCUCCUCGCUGGCGCCGGCUGGGCAACAUCCCGAGGGGACCGUCCCCUCGGUAAUGGCGAAUGGGACACA [U47C C85A] = label 1
14) GGCCGGCAUGGUCCCAGCCUCCUCGCUGGCGCCGGCUGGGCAACAUUCCGAGGGGACCGUCCCCUCGGUAAUGGCGUAUGGUACCCA [A77U G82U] = label 0
15) GGCCGGCAUGGGCCCAGCAUCCUCGCUGGCGCCGGCUGGGCAACAUUCCGAGGGGACCGUCCCCUCGGUAAUGGCGAAUGGGACCCA [U12G C19A] = label 0
16) GGCCGGCAUGGUCUCAGCCUCCUCGCUGGCGCCGGCUGGGCAACAUUCCGAGGGGCCCGUCCCCUCGGUAAUGGCGAAUGGGACCCA [C14U A56C] = label 1
17) GGCCGGCAUGGUACCAGCCUCCUCGCUGGCGCCGGCUGGGCAACAUUCCGAGGGGACCGUCCCCUCAGUAAUGGCGAAUGGGACCCA [C13A G67A] = label 0
18) GGCCGGCAUGGUCCCUGCCUCCUCGCUGGCGCCGGCUGGGCAACAUUCCGGGGGGACCGUCCCCUCGGUAAUGGCGAAUGGGACCCA [A16U A51G] = label 1
19) GGCCGGCAUGGUCCCAGCCUCCUCGCUGGCCCCGGCUGGGCAACAUUCCGAGGGAACCGUCCCCUCGGUAAUGGCGAAUGGGACCCA [G31C G55A] = label 1
20) CGCCGGCAUGGUCCCAGCCUCCUCGCUGGCGCCGGCUGGGCAACAUUCCGCGGGGACCGUCCCCUCGGUAAUGGCGAAUGGGACCCA [G1C A51C] = label 0
21) GGCCGGCAUGGUCCCAGCCUCCUCGCUGGCGCCGGCUGGGCAACAUUCCGAGGUGACCGCCCCCUCGGUAAUGGCGAAUGGGACCCA [G54U U60C] = label 1
22) GCCCGGCAUGGUCCCAGCCUCCUCGCUGGCGCCGGCUGGGCAACAUUCCGAGGGGACCGUCCCCUCGGUAAUGGCGAAUGGGACGCA [G2C C85G] = label 0
23) GGCCGGCAUGGUCCCAGCCUCCUCGCUGGCGACGGCUGGGGAACAUUCCGAGGGGACCGUCCCCUCGGUAAUGGCGAAUGGGACCCA [C32A C41G] = label 0
24) GGCCGGCAUGGUCCCAGCCUCCUCGCUGGCGCUGGCUGGGCAACAUUCCGAGGGGACCGUCCCCUCGGUAAUGGCGAAUGGGAUCCA [C33U C84U] = label 1
25) GGCCGGCAUGGUGCCAGCCUCCUCGCUGGCGCCGGCUGGGCAACAUUCCGAGGGGACCGUCCCCUCGGUAAUGGCGAAUGGGACCGA [C13G C86G] = label 0
26) GGCCGGCAUGGUCCUAGCCUCCUCGCUGGCGCCGGCUGGGCAACAUUCCGAGGGGACCGUCCCCUCGGUAAUGGCGAAUGCGACCCA [C15U G81C] = label 0
27) GGCCGGCAUGGUCCCAGCCUCCUCGCUGGCGCCGGCUGGGCAACAUUCCUAGGGGACCGUCCCCUCGGUAAUGUCGAAUGGGACCCA [G50U G74U] = label 1
28) GGCCGGCAUGGUCCCAGCCUCUUCGCUGGCGCCGGCUGGGCAACAUUCCGAGGGGACCGUCCCCUCGGAAAUGGCGAAUGGGACCCA [C22U U69A] = label 1
29) GGCCGGCAUGGUCCCAGCCUCCUCGCUGGCGCCGGCUGGGCUACAUUCCGAGGGGACCGUCCCCUCGGUAAUGGCGCAUGGGACCCA [A42U A77C] = label 0
30) GGCCGGCAUGUUCCCAGCCUCCUCGCUGGCGCCGGCUGGGCAACAUUCCGGGGGGACCGUCCCCUCGGUAAUGGCGAAUGGGACCCA [G11U A51G] = label 1
31) GGCCGGCAUGGUCCCAGCCUCCCCGCUGGCGCCGGCUGGGCAACAUACCGAGGGGACCGUCCCCUCGGUAAUGGCGAAUGGGACCCA [U23C U47A] = label 1
32) GUCCGGCAUGGUCCCAGCCUCCUCGCUGGCGCCGGCUGGGCAACAUUCGGAGGGGACCGUCCCCUCGGUAAUGGCGAAUGGGACCCA [G2U C49G] = label 0
33) GGUCGGCAUGGUCCCAGCCUCCUCGCUGGCGCCGGCUGGGCAACAUUCCGAGGGGACCGUCCCCUCGGUAAUGGCGAAUCGGACCCA [C3U G80C] = label 0
34) GGCCGGCAUGGUCCCAGCCUCCUCGCUGGCGCCGGUUGGGCAACAUUCCGAGGGGACCGUCCCCUCGAUAAUGGCGAAUGGGACCCA [C36U G68A] = label 1
35) GGCCGGCAUGGUCCCAGCCUCCUCGCUGACGCAGGCUGGGCAACAUUCCGAGGGGACCGUCCCCUCGGUAAUGGCGAAUGGGACCCA [G29A C33A] = label 0
36) GGCCGGCAUGGUCCCAGCCUCCUCGCUGGCGCCGGCAGGGCAACAUUCCGAGGGGACCGUCCCCUCGGUAAUGGCGAAUGGGACCCC [U37A A87C] = label 0
37) GGCCGGCAUGGUCCCAGCCUCCUCGCUGGCGCCGGCUGGGCAACAUUCCGAGGGGCCCGUCUCCUCGGUAAUGGCGAAUGGGACCCA [A56C C62U] = label 1
38) GGCCGGCAUGGUCCCAGCCUCCUCGCUGGCGCCGGCUGGGCAACAUUCUGAGGGGACCGUCCCCUCGGUGAUGGCGAAUGGGACCCA [C49U A70G] = label 1
39) GGCCGGCAUGGUCCCAGCCGCCUCGCUGGCGCCGGCUGGGCAACAUUCCGAGGGGACCGUCCCCUCGUUAAUGGCGAAUGGGACCCA [U20G G68U] = label 0
40) GGCCGGCAUGGUCUCAGCCUCCUCGCUGGCGCCGGCUGGGCAACAUUCCGAGGGGACCGUCCCCUCGGUAAUGGCGAAUGGGACCUA [C14U C86U] = label 1
41) GGCCGGCAUGGUCCCAGCCUCCUCGCUGGCGCGGGCUGGGCAACAUUCCGAGGGGACCGUCCCCUCGGUAAUAGCGAAUGGGACCCA [C33G G73A] = label 0
42) GGCCGGUAUGGUCCCAGCCUCCUCGCUGGCGCCGGCUGAGCAACAUUCCGAGGGGACCGUCCCCUCGGUAAUGGCGAAUGGGACCCA [C7U G39A] = label 0
43) GGCCGGCAUGGUCCCAGCCUCCGCGCUGGCGCCGGAUGGGCAACAUUCCGAGGGGACCGUCCCCUCGGUAAUGGCGAAUGGGACCCA [U23G C36A] = label 0
44) GGCCGGUAUGGUCCCAGCCUCCUCGCUGGCGCCGGCUGGGCAACAUGCCGAGGGGACCGUCCCCUCGGUAAUGGCGAAUGGGACCCA [C7U U47G] = label 1
45) GGCCGUCAUGGUCCCAGCCUCCUCGCUGGCGCCGGCUGGGCAACAUUCCGAGGGGACCGUCCCCUCGGUAAUAGCGAAUGGGACCCA [G6U G73A] = label 0
46) GGCCGGCAUGGUCCCAGCCUCCUCGCUGGCGCCGGAUGGGCAACAUUCCGAAGGGACCGUCCCCUCGGUAAUGGCGAAUGGGACCCA [C36A G52A] = label 0
